Assay: NCI Yeast Anticancer Drug Screen. Data for the mlh1 rad18 strain (AID 175)
Details: S. cerevisiae mlh1 rad18 strain growth inhibition; at 50.0 µM unless noted
This is part of a sample that, as a whole, favours compounds with a hit. Of some 79,000 tested, about 15% had one in any assay. Activity calls are given as the source filed them. Rule as the data show it: active = growth inhibition above about 70%; inactive = the rest.
Possible outcomes: active, inactive

| molecule | class |
| --- | --- |
| CC(=O)C[n+]1cccc(Br)c1 | inactive |
| N#CC1C(c2ccc(Cl)cc2)C(C(N)=O)C(=O)NC1(O)c1ccccc1 (stereo not given) | inactive |
| CC[N+](CC)(CC)CCOC(=O)c1cc(OC)c(OC)c(OC)c1 | inactive |
| CSC(N)=Nc1cccc2ccccc12 | inactive |
| O=C1C(Br)=C[C@H]2C3C=CC(Br)(C3=O)[C@@H]12 (stereo not given in full) | inactive |
| CC(C)=C(Nc1ccccc1)NC(C)C | inactive |
| CC(C)OC(=O)c1ccc(CCC2=CC(=O)C(Br)=CC2=O)cc1 | active |
| Cc1ccc(OCCC(=O)O)cc1 | inactive |
| CN(CC#CC#CCN(C)c1ccccc1)c1ccccc1 | inactive |
| O=C1CN(CCc2ccccc2)CC(=O)N2C(c3ccccc3)CCCN12 (stereo not given) | inactive |
| CCN(CC)C(=S)Oc1ccc(OC(=S)N(CC)CC)cc1 | inactive |
| NCc1ccc(F)cc1 | inactive |
| C=CCC(O)CCCCC (stereo not given) | inactive |
| CCCCCCC1OCC(CC)([N+](=O)[O-])CO1 (stereo not given) | inactive |
| CCOC(=O)N(C)C1(c2ccccc2)CCN(CCCC(=O)c2ccc(F)cc2)CC1 | inactive |
| CC1=NN(C(=O)Nc2ccc(Cl)cc2)C(=O)C2CCC(=O)N12 (stereo not given) | inactive |
| COc1cc(/C=C/C(=O)c2sc(Nc3ccccc3)nc2C)ccc1O | inactive |
| COc1cc(C(=O)NO)ccc1O | inactive |
| COc1cccc(Br)n1 | inactive |
| CCC(C)C/C(C)=N/Nc1ccc([N+](=O)[O-])cc1[N+](=O)[O-] (stereo not given) | inactive |
| N#Cc1c(C(F)(F)F)cc(-c2cccs2)nc1SC(C(=O)Nc1cc(C(F)(F)F)cc(C(F)(F)F)c1)c1ccccc1 (stereo not given) | inactive |
| O=c1c2cc(Cl)ccc2c2ccc(Cl)cc2c(=O)n1-c1ccc2c(c1)Cc1ccccc1-2 | inactive |
| ClC(Cl)CN(Cc1ccccc1)c1ncc[nH]1 | inactive |
| N#CC(C(=O)C(=O)Nc1nccs1)c1ccccc1 (stereo not given) | inactive |
| O=C1C2=C(C(=O)C3=C1C1CCC3C1)C1CCC2C1 | inactive |

---

Test: NCI Yeast Anticancer Drug Screen. Data for the cln2 rad14 strain (AID 165);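 also: 0% = growth equal to vehicle treated cultures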
Conditions: S. cerevisiae cln2 rad14 strain, hits give high values; at 50.0 µM unless noted
Compounds without any hit were thinned out: in the full panel of roughly 79,000, 15% have a hit.
So basically: growth inhibition at -20% or higher? That is rule met. Lower than -20%? That is rule not met.

| compound | class |
| --- | --- |
| CCC(C)(CC)c1ccc(C)cc1OC | rule met |
| CCOC(=O)C(N)CSC(=O)NC (stereo unspecified) | rule met |
| CSC(N)=Nc1cccc2ccccc12 | rule met |
| C=CCc1cn(C2CC(OC(=O)c3ccc(Cl)cc3)C(COC(=O)c3ccc(Cl)cc3)O2)c(=O)[nH]c1=O (stereo unspecified) | rule met |
| CCCCSc1ncnc2nc[nH]c12 | rule not met |
| O=Nc1c(S(=O)(=O)O)cc2cc(S(=O)(=O)O)ccc2c1O | rule met |
| COCCCC(=O)CNC(C)C | rule met |
| CC(=O)Cc1ncn(-c2cc(C)on2)n1 | rule met |
| Cc1ccc(S(=O)(=O)N2C(=O)CCC2C(=O)O)cc1 (stereo unspecified) | rule met |
| CSc1cc(Cl)c(C(=O)Nc2ccccc2)cc1S(=O)(=O)n1cc[nH]c1=O | rule met |
| CN(C(=O)c1cccc([N+](=O)[O-])c1)C1CCCCC1 | rule met |
| CCOC(OCC)C1(C)CC=CCC1 (stereo unspecified) | rule met |
| C=CCSCc1ccccc1 | rule met |
| N=C(N)c1ccc(NC(=S)Nc2ccc(C(=N)N)cc2)cc1 | rule met |
| CCCCCCCCCCCCCCCCCCc1ccc(O)cc1O | rule met |
| NCCNCCNCCN | rule not met |
| O=C(O)c1cscc1Cc1cccs1 | rule not met |
| CCCCCCCCCCCCCCCCCCOC(=O)CC(C)=O | rule met |
| CC(O)C(O)C(O)C(O)c1nc2ccccc2[nH]1 (stereo unspecified) | rule not met |
| Cc1ccc(NC(=O)ON(C)C)cc1 | rule not met |
| COc1ccccc1C(O)C(C)C (stereo unspecified) | rule met |
| Cc1ncc(CO)c(CO)c1O | rule met |
| COC(=O)C1C(O)C(C)C(O)C(C)(O)/C=C/C=C(C)C(=O)Nc2c(C)c(OC(C)=O)c3c(c2O)C(=O)C(C)=C2OCOC(=C23)C(C)=CC(C)(O)C(O)C(C)C1OC(C)=O (stereo unspecified) | rule met |
| COC1=CC(=O)C2CC=CC(CC(=O)O)C2(C)C1=O (stereo unspecified) | rule not met |
| CCOC(=O)Cc1ccc2ccccc2c1 | rule met |
| Cc1cc(N(CCC#N)CCC#N)ccc1N=Nc1ccc(S(N)(=O)=O)cc1 | rule met |

---

Experiment: NCI Yeast Anticancer Drug Screen. Data for the mlh1 rad18 strain (AID 175)
Conditions: S. cerevisiae mlh1 rad18 strain growth inhibition, hits give high values; at 50.0 µM unless noted
Compounds without any hit were thinned out: in the full panel of roughly 79,000, 15% have a hit.
Measured growth inhibition, listed per entry.

| compound | growth inhibition / % |
| --- | --- |
| O=C(Nc1ccccc1)C12CCC(CC1Br)C2 (stereo not given) | 14.2 |
| O=C(O)CCCn1nnc2c(=O)[nH][nH]c(=O)c21 | 11.6 |
| COc1cc(Br)c(CC(NC=O)c2ccc(OC)c(OC)c2OC)cc1OC (stereo not given) | 23.9 |
| O=C1NN(C(=O)c2ccccc2)C(c2ccccc2[N+](=O)[O-])c2c1c1ccccc1n2C(=O)c1ccccc1 (stereo not given) | 14.9 |
| O=C1C(CN2CCCC2)CCCC1CN1CCCC1 (stereo not given) | -10.1 |
| N#CCN1CCCCCC1 | 9.8 |
| CCN(CC)CCCNc1ncnc2c1C(c1ccccc1)c1ccccc1-2 (stereo not given) | -6.9 |
| COc1ccc(CCNC(=O)[C@H]2CCCC[C@@H]2CCO)cc1OC | -9 |
| CC(C)=C1C2CCC1C(CO)C2CO (stereo not given) | -15.7 |
| O=[N+]([O-])c1ccc(N/N=C2/CC3CCC2C3)c([N+](=O)[O-])c1 (stereo not given) | 0.55 |
| Cc1nc2ccncc2[nH]1 | -8.2 |
| COc1cc2c(cc1OC)[C@H](c1cc(OC)c3c(c1)OCO3)[C@H]1C(=O)OCC1C2 (stereo not given in full) | 15.4 |
| Cc1cccc(C(=N)c2ccccc2Cc2cccc3ccccc23)c1C | 37.8 |
| O=C1c2ccccc2C(=O)N1CCS(=O)(=O)O | 9.9 |
| O=C(C[n+]1ccccc1)c1ccc(O)c(I)c1 | 7.4 |
| CN(C)C1=NS(=O)(=O)c2ccccc21 | 2.9 |
| COc1cccc(N2C(=O)C3c4[nH]c5ccc(C)cc5c4C4CCC(C)CC4C3C2=O)c1 (stereo not given) | -13.4 |
| COc1cc(/C=N/NC(=O)c2ccccc2OC)ccc1O | 17.2 |
| CS(=O)(=O)OC1Cc2ccccc2C1 | 9.9 |
| CCCCN(CCCC)C(=O)C(=O)C(C(=O)c1ccc(OC)cc1)c1ccc(OC)cc1 (stereo not given) | -3.95 |
| CCOC(=O)c1c2ccc(/C=C/C(=O)OC)ccc-2c(C(=O)OCC)c1N | -4.35 |
| N#CSc1ccc(NN)cc1 | 1.55 |
| CC(C)(C)OC(=O)/N=C/c1c(O)c2ccccc2oc1=O | -26 |
| CCCCSCC(N)CO (stereo not given) | 1.75 |
| CCN(CCN1CCCCC1)c1ccccn1 | -10.9 |

---

Assay: NCI Yeast Anticancer Drug Screen. Data for the mlh1 rad18 strain (AID 175)
Details: S. cerevisiae mlh1 rad18 strain growth inhibition; at 50.0 µM unless noted
Description: Growth inhibition of yeast strains with defined genetic alterations is measured as a screen for potential anti-cancer activity. Selected strains with alterations in DNA damage repair or cell cycle control were exposed to compounds and growth inhibition was measured relative to vehicle treated controls. The strain used in this assay is mlh1 rad18
Compounds without any hit were thinned out: in the full panel of roughly 79,000, 15% have a hit. Activity calls are given as the source filed them. Cut-off read from the data, not from the text of the source: active = growth inhibition above about 70%; inactive = the rest.
Outcome codes: true (active), false (inactive)

| compound | class |
| --- | --- |
| COc1ccc(/C=C/C(=O)c2sc(Nc3ccc([N+](=O)[O-])cc3)nc2C)cc1 | false |
| COc1cc(OC)c(I)cc1Cl | false |
| COC1COCOC1C(OC)C1OCOCC1OC (stereo not given) | false |
| CCCCCCCCCCCCNCCC(=O)O | false |
| NC(=O)C1CC2(c3ccccn3)c3ccccc3C1c1ccccc12 (stereo not given) | false |
| O=C1CCCCC(=O)NCCCCCCN1 | false |
| OC[C@H]1N[C@H](CO)[C@@H](O)[C@H]1O | false |
| CC(C)CCOC(=O)C(O)c1ccccc1 (stereo not given) | false |
| CCCCCCSC(=O)NC(C)=O | false |
| CN(C)C1=CC(=S)NC(c2ccccc2)C1 (stereo not given) | false |
| CC1=Cc2cccc(C)c2C(=O)C1=O | true |
| COC(=O)c1cc(NC(=O)Nc2cc(C(F)(F)F)ccc2Cl)cc(C(=O)OC)c1 | false |
| CN(C)c1ccc(O[Si](Oc2ccc(N(C)C)cc2)(Oc2ccc(N(C)C)cc2)Oc2ccc(N(C)C)cc2)cc1 | false |
| Cc1ccc(Cl)cc1NC(=O)c1ccccc1 | false |
| O=C(O)c1ccc(Cl)o1 | false |
| CC(=O)Oc1ccccc1C(=O)N(N)CCSc1ccc(Cl)cc1 | false |
| CCOC(C)(Cc1ccccc1[N+](=O)[O-])OCC | false |
| CC(C)(C)OC(=O)NCC(=O)NC1C/C(=N\O)c2sccc21 (stereo not given) | false |
| O=C(c1ccc(-c2ccccc2)cc1)C(O)c1ccc(-c2ccccc2)cc1 (stereo not given) | false |
| N#C/C(=C\c1cc(Cl)cc(Cl)c1O)c1nc2ccccc2[nH]1 | false |
| C[C@H](CCC1=NCCN1)[C@H]1CC[C@H]2[C@@H]3CC[C@@H]4C[C@H](O)CC[C@]4(C)[C@H]3CC[C@]12C | true |
| COc1ccc2cc3n(c(=O)c2c1OC)CCc1cc2c(cc1-3)OCO2 | false |
| CCc1ccc(NC(=O)c2ccccc2)cc1CC | false |
| CNc1ccccc1C(=O)NCCCN | false |
| c1ccc(N=c2sc3ccccc3nc2Nc2ccccc2)cc1 | false |
